System: Odoribacter splanchnicus
ASSAY SUMMARY: growth AUC relative to DMSO control (median of replicates) (fraction); higher = more growth (less inhibition), active = hit call of the paper;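 active = AUC reduced over 20% with Padj below 0.05 in at least 2 of 3 replicates; inactive = otherwise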
TEST CONDITIONS: 20 µM; 24 h
Hello, when you answer, please use one of the following outcomes: active, inactive

Please review the following examples before continuing.
[
  {
    "COMPOUND": "CCCCc1c(C)nc(NCC)nc1OS(=O)(=O)N(C)C",
    "CATEGORY": "inactive"
  },
  {
    "COMPOUND": "CNC(=O)Oc1ccc(N(C)C)c(C)c1",
    "CATEGORY": "inactive"
  },
  {
    "COMPOUND": "CN(C)C(=O)C(c1ccccc1)c1ccccc1",
    "CATEGORY": "inactive"
  },
  {
    "COMPOUND": "C[Si](Cn1cncn1)(c1ccc(F)cc1)c1ccc(F)cc1",
    "CATEGORY": "inactive"
  }
]

q: Could you kindly confirm the outcome this assay logged for COC(=O)C1(O)c2ccccc2-c2ccccc21 ?
a: inactive

q: Could you kindly confirm the outcome this assay logged for CC(C)=CC1C(C(=O)OCN2C(=O)C3=C(CCCC3)C2=O)C1(C)C (configuration not stated) ?
a: inactive

q: Could you kindly confirm the outcome this assay logged for Nc1c([N+](=O)[O-])ccc(Oc2ccccc2)c1Cl ?
a: inactive

q: Could you kindly confirm the outcome this assay logged for CNC(=O)Oc1cccc(N=CN(C)C)c1.Cl ?
a: inactive

###

System: Collinsella aerofaciens
ASSAY SUMMARY: growth AUC relative to DMSO control (median of replicates) (fraction); higher = more growth (less inhibition), active = hit call of the paper
TEST CONDITIONS: 20 µM; 24 h
// growth AUC lookup, one value per entry
No unit in the answer, only the number.

Use the examples below as a reference point.
[
  {
    "MOLECULE": "CN(C)C(CSC(N)=O)CSC(N)=O.Cl",
    "growth AUC": 1.03
  },
  {
    "MOLECULE": "CC(Cc1ccc(C(C)(C)C)cc1)CN1CCCCC1 (stereo not drawn)",
    "growth AUC": 0.959
  },
  {
    "MOLECULE": "NCP(=O)(O)O",
    "growth AUC": 1.05
  },
  {
    "MOLECULE": "C#CCOc1ccc(CCNC(=O)C(OCC#C)c2ccc(Cl)cc2)cc1OC (stereo not drawn)",
    "growth AUC": 1
  },
  {
    "MOLECULE": "O=C(NC(=O)c1ccccc1Cl)Nc1ccc(OC(F)(F)F)cc1",
    "growth AUC": 0.937
  },
  {
    "MOLECULE": "CC(Cl)(Cl)C(=O)O",
    "growth AUC": 1.02
  }
]

Kindly note: Collinsella aerofaciens, O=C1C(Cl)=C(Cl)C(=O)C(Cl)=C1Cl , growth AUC value reported: 0.992

Kindly note: Collinsella aerofaciens, Clc1ccc(Cl)c(Cl)c1 , growth AUC value reported: 0.969

Kindly note: Collinsella aerofaciens, CCNc1nc(NC(C)C)nc(OC)n1 , growth AUC value reported: 0.962

Kindly note: Collinsella aerofaciens, N#CN=C1SCCN1Cc1ccc(Cl)nc1 , growth AUC value reported: 0.98

Kindly note: Collinsella aerofaciens, CCOP(=S)(OCC)SCCS(=O)CC (stereo not drawn) , growth AUC value reported: 1

Kindly note: Collinsella aerofaciens, CCOP(=S)(OCC)Oc1ccc(S(C)=O)cc1 (stereo not drawn) , growth AUC value reported: 1.05

Kindly note: Collinsella aerofaciens, CCN(CC)C(=O)SCc1ccc(Cl)cc1 , growth AUC value reported: 0.948
